- method-summary: Apparent permeability of the compound after 22 hrs by PAMPA-GI model analysis
- Type: physicochemical
outcome-measure: Papp (×10⁻⁶ cm/s)
Write it as a number; the unit ×10⁻⁶ cm/s goes unstated.

q: # input molecule: CN1c2c(C(=O)Nc3ccc(NS(C)(=O)=O)cc3)nn(-c3cccc(Cl)c3)c2-c2ccccc2S1(=O)=O ; wanted: its Papp
a: 4.2

---

- method-summary: Cytostatic activity against human Huh5-2 cells carrying HCV genotype 1b I389luc-ubi-neo/NS3-3'/5.1 replicon assessed as reduction in metabolic activity after 72 hrs by MTS assay
- Type: ADME, cell-based, Huh-5-2
- study-conditions: huh-5-2, 72 h
Can you tell me CC50 for the items I'm about to list?

q: Given the molecule CN1c2c(C(=O)Nc3ccc(NS(C)(=O)=O)cc3)nn(-c3cccc(Br)c3)c2-c2ccccc2S1(=O)=O , what is its reported CC50?
a: > 166 µM

q: Next molecule up: Cc1ccc(-n2nc(C(=O)Nc3ccc(NS(C)(=O)=O)cc3)c3c2-c2ccccc2S(=O)(=O)N3C)cc1Cl
a: > 175 µM

q: Please give the result for CN1c2c(NC(=O)c3ccc(NS(C)(=O)=O)cc3)nn(-c3cccc(F)c3)c2-c2ccccc2S1(=O)=O too.
a: 160 µM

q: Next molecule: CN1c2c(C(=O)Nc3ccc(OCC(N)=O)cc3)nn(-c3cccc(F)c3)c2-c2ccccc2S1(=O)=O
a: > 192 µM

q: How about Cc1cccc(-n2nc(C(=O)Nc3ccc(NS(C)(=O)=O)cc3)c3c2-c2ccccc2S(=O)(=O)N3C)c1 ?
a: > 233 µM

q: Then this molecule: CN1c2c(C(=O)Nc3ccccc3)nn(-c3cccc(F)c3)c2-c2ccccc2S1(=O)=O
a: 56 µM

q: # iterate: Cc1ccc(-n2nc(C(=O)Nc3ccc(NS(C)(=O)=O)cc3)c3c2-c2ccccc2S(=O)(=O)N3C)cc1
a: > 186 µM

q: Query CN1c2c(C(=O)Nc3ccc(NS(C)(=O)=O)cc3)nn(-c3ccc(Cl)c(C(F)(F)F)c3)c2-c2ccccc2S1(=O)=O next
a: > 160 µM

q: Now the same for CN1c2c(C(=O)Nc3ccc(NS(C)(=O)=O)cc3)nn(-c3ccc(F)c(F)c3)c2-c2ccccc2S1(=O)=O
a: 138 µM

q: Then this molecule: CN1c2c(C(=O)Nc3ccc(NS(C)(=O)=O)cc3)nn(-c3ccc(Cl)cc3)c2-c2ccccc2S1(=O)=O
a: > 224 µM

q: Request: COc1ccc(-n2nc(C(=O)Nc3ccc(NS(C)(=O)=O)cc3)c3c2-c2ccccc2S(=O)(=O)N3C)cc1
a: > 226 µM

q: Now this one: CN1c2c(C(=O)Nc3ccc(NS(C)(=O)=O)cc3)nn(-c3ccccc3Cl)c2-c2ccccc2S1(=O)=O
a: > 224 µM

q: And Cc1ccc(-n2nc(C(=O)Nc3ccc(NS(C)(=O)=O)cc3)c3c2-c2ccccc2S(=O)(=O)N3C)cc1C ?
a: > 181 µM

q: What do you have for CN1c2c(C(=O)Nc3ccc(NS(C)(=O)=O)cc3)nn(-c3ccc(Br)cc3)c2-c2ccccc2S1(=O)=O ?
a: > 166 µM

q: # repeat for CN1c2c(C(=O)Nc3ccc(NS(C)(=O)=O)cc3)n[nH]c2-c2ccccc2S1(=O)=O
a: 155 µM

q: What about Cc1ccccc1-n1nc(C(=O)Nc2ccc(NS(C)(=O)=O)cc2)c2c1-c1ccccc1S(=O)(=O)N2C ?
a: > 233 µM

q: Another molecule to check: CN1c2c(C(=O)Nc3ccc(NS(C)(=O)=O)cc3)nn(-c3ccccc3Br)c2-c2ccccc2S1(=O)=O
a: 107 µM

q: Likewise for COc1cccc(-n2nc(C(=O)Nc3ccc(NS(C)(=O)=O)cc3)c3c2-c2ccccc2S(=O)(=O)N3C)c1 ?
a: > 181 µM

q: Please answer likewise for CN1c2c(C(=O)Nc3ccc(NS(C)(=O)=O)cc3)nn(-c3cccc(Cl)c3)c2-c2ccccc2S1(=O)=O
a: > 179 µM

q: Can you handle CN1c2c(C(=O)Nc3ccc(NS(C)(=O)=O)cc3)nn(-c3ccc(Cl)c(Cl)c3)c2-c2ccccc2S1(=O)=O next?
a: > 168 µM

q: Same question, CN1c2c(C(=O)Nc3ccc(NS(C)(=O)=O)cc3)nn(-c3ccc(C(F)(F)F)cc3)c2-c2ccccc2S1(=O)=O this time
a: > 169 µM

q: Subsequent entry: CN1c2c(C(=O)Nc3ccc(NS(C)(=O)=O)cc3)nn(C3CCCCC3)c2-c2ccccc2S1(=O)=O
a: 44 µM

q: Now consider CN1c2c(C(=O)Nc3ccc(NS(C)(=O)=O)cc3)nn(-c3cccc(C(F)(F)F)c3)c2-c2ccccc2S1(=O)=O and answer again.
a: > 211 µM

q: // query: CN1c2c(C(=O)Nc3ccc(NS(C)(=O)=O)cc3)nn(-c3ccccc3C(F)(F)F)c2-c2ccccc2S1(=O)=O
a: > 169 µM
